Hey, just so you know, these numbers are from the emibetuzumab library of Makowski et al. (2022).

B1: VH:VL chains; a variant is named by its letters at X, in order (parent)
chain 1: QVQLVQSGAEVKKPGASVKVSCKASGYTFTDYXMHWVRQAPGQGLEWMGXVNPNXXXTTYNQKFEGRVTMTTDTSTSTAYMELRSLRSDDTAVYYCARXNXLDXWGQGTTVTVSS
chain 2: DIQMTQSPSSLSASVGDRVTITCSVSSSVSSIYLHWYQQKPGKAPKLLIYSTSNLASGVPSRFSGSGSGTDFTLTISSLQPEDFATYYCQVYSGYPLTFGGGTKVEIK

Variants of: B1
Assay: yeast display scFab, FACS + sequencing
test readout: non-specific binding call

Sample records with non-specific binding call:
VEGTGVGD : binds
YAREGSGA : binds
FRGRGSWV : binds
FAGGGFAV : binds
YRRRGVGA : binds

Go through the items and report each one's non-specific binding call.
1. VRKKGYVY
2. YRARSAGV
3. DRAGDAGS

result:
1. binds
2. binds
3. no binding

Each variant below has a reported value. Please supply its non-specific binding call.
1. DEGGTDGS
2. AAGRAYGA
3. YRGRGYWY
4. DKTGNDVV
5. DAGEAAGD

result:
["no binding", "binds", "binds", "no binding", "no binding"]
